# assay.target: UniProt:P41595
# Sequence (P41595 whole entry): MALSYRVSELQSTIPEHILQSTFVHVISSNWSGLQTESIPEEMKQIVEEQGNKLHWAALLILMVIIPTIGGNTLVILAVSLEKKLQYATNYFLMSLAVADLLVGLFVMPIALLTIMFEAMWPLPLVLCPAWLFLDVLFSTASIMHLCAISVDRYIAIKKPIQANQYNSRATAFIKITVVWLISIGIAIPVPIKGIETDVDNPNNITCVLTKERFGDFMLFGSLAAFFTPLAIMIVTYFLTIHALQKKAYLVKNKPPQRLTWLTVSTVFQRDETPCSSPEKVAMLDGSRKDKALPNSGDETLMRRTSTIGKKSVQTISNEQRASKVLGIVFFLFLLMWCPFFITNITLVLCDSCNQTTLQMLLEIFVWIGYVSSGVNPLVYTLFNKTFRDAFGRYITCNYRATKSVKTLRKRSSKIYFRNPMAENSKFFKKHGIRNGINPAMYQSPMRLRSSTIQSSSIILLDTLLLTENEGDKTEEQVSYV
# experiment.notes: Binding to 5-HT2B receptor, [3H]-5-HT radioligand, Method (b)
# condition.details: human 5-HT2B receptors in a CHO cell line, read-out: Method (b) Ki (2B)
pKi: −log10 of the molar value. Counter-ions that a name gives are not always drawn.
# binarize pKi: threshold 7 inclusive, high side true, low side false

{"compound": "Cc1nn(CC(C)N)c2ccccc12 (racemic) [Example 1, Fumarate]", "assay.target": "UniProt:P41595", "label": "false"}
{"compound": "CCc1nn(C[C@H](C)N)c2cc(SC)ccc12 [Example 8, Fumarate]", "assay.target": "UniProt:P41595", "label": "true"}
{"compound": "Cc1nn(C[C@H](C)N)c2cc(Cl)c(F)cc12 [Example 4, Fumarate]", "assay.target": "UniProt:P41595", "label": "true"}

* * *

# assay.target: human 5-HT2A receptors (Homo sapiens, UniProt P28223)
# Construct: expressed in transfected cells; host or cells: CHO cells
# Sequence (P28223 whole entry): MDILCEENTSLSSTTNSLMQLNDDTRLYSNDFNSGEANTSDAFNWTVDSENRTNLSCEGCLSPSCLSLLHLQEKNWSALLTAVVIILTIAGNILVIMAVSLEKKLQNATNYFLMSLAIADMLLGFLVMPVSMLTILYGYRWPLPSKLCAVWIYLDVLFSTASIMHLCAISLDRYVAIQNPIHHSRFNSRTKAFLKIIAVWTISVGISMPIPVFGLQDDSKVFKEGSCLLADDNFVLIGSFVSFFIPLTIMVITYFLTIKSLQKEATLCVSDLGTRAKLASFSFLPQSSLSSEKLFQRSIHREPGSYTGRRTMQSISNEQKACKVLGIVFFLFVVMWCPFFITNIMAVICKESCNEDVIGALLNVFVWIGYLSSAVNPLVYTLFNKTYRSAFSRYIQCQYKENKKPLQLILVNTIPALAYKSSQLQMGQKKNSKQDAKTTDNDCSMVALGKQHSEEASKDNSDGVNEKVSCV
# experiment.notes: Functional activity, FLIPR calcium assay, CHO cells expressing human 5-HT2A
# Type: cell-based
# condition.details: maximum fluorescent signal relative to 10 μM 5-HT (defined as 100%)
Structures can show the parent of a compound that is named as a salt.
h5-HT2A Relative Efficacy (%) strictly under 50% means 1; at 50% or over means -1.

{"molecule": "COc1ccc2c(C)nn(C[C@H](C)N)c2c1 [Example 2, Fumarate]", "label": -1}
{"molecule": "CCc1nn(C[C@H](C)N)c2cc(F)ccc12 [Example 6, Fumarate]", "label": 1}
{"molecule": "CCc1nn(C[C@H](C)N)c2cc(Br)ccc12 [Example 7, Fumarate]", "label": 1}
{"molecule": "CCc1nn(C[C@H](C)N)c2cc(SC)ccc12 [Example 8, Fumarate]", "label": 1}
{"molecule": "Cc1nn(C[C@H](C)N)c2cc(Cl)c(F)cc12 [Example 4, Fumarate]", "label": -1}
